Target: T1, Human EphA2 (Ecto), C-terminal polyHis (Human, UniProt P29317 24-537)
T1 construct: extracellular domain; R&D systems 3035-A2 or in-house
T1 sequence (P29317 24-537): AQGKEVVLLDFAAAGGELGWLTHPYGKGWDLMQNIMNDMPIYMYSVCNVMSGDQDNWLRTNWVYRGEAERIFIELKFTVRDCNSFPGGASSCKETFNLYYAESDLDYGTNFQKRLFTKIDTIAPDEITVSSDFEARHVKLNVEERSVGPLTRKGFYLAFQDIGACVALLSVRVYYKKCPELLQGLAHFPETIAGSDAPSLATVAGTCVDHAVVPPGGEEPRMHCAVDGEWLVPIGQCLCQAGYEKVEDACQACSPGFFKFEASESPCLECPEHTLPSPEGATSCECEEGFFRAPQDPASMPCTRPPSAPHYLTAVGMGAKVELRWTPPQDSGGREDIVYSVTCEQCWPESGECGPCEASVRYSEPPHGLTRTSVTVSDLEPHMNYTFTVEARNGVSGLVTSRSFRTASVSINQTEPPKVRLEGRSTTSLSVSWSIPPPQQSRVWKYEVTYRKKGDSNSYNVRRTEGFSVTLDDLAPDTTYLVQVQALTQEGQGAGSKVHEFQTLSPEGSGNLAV
Experiment: FP competition vs Reference Compound C (Study 2)
observable: Ki (nM)
Field: numeric (nM). Do not append units.

Here is how some binders turned out for Ki.
1) AXDCPLVNPLCLHPGWTC (not fully specified; as BCY6014 (N-terminal (β-Ala)-Sar10; HArg; TATA scaffold on the 3 Cys) + DM1-(Me)-SS-(Me)-, Bicycle drug conjugate (BDC)) [BCY6039]    9.4
2) AXDCPLVNPLCLHPGWTC (not fully specified; as BCY6014 (N-terminal (β-Ala)-Sar10; HArg; TATA scaffold on the 3 Cys) + MMAE-Glu-Pro-Cit-Gly-hPhe-Tyr-Leu-, Bicycle drug conjugate (BDC)) [BCY6107]    19.2
3) AXDCPLVNPLCLHPGWTC (not fully specified; as BCY6014 (N-terminal (β-Ala)-Sar10; HArg; TATA scaffold on the 3 Cys) + MMAE-D-Ala-Phe-Lys-, Bicycle drug conjugate (BDC)) [BCY6106]    12.9

Now consider the entry below.
The binder AXDCPLVNPLCLHPGWTC (not fully specified; as BCY6014 (N-terminal (β-Ala)-Sar10; HArg; TATA scaffold on the 3 Cys) + MMAE-Ala-Ala-Asn, Bicycle drug conjugate (BDC)) [BCY6105] showed Ki equal to 8.86
